Data provenance: paper PMC6382696

system.tested: hTMEM16A (abc) (Homo sapiens, UniProt Q5XXA6, DEL476-501)
Sequence (Q5XXA6 with tags, fused parts or gaps isoform Q5XXA6-5 DEL539-564): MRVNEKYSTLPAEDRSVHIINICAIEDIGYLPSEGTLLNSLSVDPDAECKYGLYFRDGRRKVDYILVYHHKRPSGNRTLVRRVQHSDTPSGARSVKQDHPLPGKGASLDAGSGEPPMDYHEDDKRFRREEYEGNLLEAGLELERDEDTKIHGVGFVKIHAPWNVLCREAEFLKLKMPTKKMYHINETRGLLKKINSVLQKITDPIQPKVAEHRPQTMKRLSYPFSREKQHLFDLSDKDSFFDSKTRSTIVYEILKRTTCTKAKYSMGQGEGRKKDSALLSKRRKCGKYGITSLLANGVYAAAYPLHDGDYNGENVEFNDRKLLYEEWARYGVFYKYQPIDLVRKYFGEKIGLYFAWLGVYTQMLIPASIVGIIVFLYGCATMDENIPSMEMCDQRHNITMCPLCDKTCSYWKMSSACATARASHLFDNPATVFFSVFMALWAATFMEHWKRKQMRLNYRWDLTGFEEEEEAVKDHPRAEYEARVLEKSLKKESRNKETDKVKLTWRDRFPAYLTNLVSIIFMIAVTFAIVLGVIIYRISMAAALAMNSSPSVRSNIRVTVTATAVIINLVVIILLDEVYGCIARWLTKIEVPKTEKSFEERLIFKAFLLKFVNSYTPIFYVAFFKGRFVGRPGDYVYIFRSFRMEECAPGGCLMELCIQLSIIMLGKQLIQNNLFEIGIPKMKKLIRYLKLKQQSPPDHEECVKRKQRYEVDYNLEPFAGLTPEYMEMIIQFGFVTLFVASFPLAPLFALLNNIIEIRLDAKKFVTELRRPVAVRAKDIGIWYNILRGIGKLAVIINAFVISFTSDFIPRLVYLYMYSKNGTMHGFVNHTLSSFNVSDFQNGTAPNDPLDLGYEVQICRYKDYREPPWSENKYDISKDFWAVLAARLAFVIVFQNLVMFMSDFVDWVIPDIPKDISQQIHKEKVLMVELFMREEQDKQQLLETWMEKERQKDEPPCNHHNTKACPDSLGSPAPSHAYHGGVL
assay.remarks: medchem TMEM16A halide-sensitive YFP assay, 22-point dose-response
Format: cell-based
Design: expressed in transfected cells
measurement.conditions: average, 22-point dose-response, iodide as permeant anion; read-out: TMEM16A eYFP Assay (IC50)
Please go through the items and note down their pIC50.
Give bare numbers, as −log10 of the molar value.

// below: answered compounds
| compound | pIC50 |
| --- | --- |
| O=C(Nc1ncc([N+](=O)[O-])s1)c1cccs1 | 5.61 |
| O=C(O)c1cccnc1Nc1cccc(C(F)(F)F)c1 | 4.58 |
| O=C(Nc1ccc([N+](=O)[O-])cc1)c1cc(Cl)c2ccccc2c1O | 6.74 |
| CCc1oc2ccccc2c1C(=O)c1cc(Br)c(O)c(Br)c1 | 5.82 |
| CC(=O)Oc1ccccc1C(=O)Nc1ncc([N+](=O)[O-])s1 [Nitazoxanide] | 5.91 |

I need pIC50 for every entry listed below, if you could help.
1. O=C(Nc1ccc(Cl)cc1Cl)c1cc(Cl)ccc1O
2. O=C(Nc1ncc([N+](=O)[O-])s1)c1ccccc1O [Tizoxanide]

Solution:
[7.06, 6.40]

Exercise: What value of pIC50 has been recorded for this entry: COc1cc([N+](=O)[O-])ccc1NC(=O)c1cc(Cl)c2ccccc2c1O
Solution: 6.05

---

system.tested: TMEM16A (acd) (Homo sapiens)
Sequence (Q5XXA6 whole entry): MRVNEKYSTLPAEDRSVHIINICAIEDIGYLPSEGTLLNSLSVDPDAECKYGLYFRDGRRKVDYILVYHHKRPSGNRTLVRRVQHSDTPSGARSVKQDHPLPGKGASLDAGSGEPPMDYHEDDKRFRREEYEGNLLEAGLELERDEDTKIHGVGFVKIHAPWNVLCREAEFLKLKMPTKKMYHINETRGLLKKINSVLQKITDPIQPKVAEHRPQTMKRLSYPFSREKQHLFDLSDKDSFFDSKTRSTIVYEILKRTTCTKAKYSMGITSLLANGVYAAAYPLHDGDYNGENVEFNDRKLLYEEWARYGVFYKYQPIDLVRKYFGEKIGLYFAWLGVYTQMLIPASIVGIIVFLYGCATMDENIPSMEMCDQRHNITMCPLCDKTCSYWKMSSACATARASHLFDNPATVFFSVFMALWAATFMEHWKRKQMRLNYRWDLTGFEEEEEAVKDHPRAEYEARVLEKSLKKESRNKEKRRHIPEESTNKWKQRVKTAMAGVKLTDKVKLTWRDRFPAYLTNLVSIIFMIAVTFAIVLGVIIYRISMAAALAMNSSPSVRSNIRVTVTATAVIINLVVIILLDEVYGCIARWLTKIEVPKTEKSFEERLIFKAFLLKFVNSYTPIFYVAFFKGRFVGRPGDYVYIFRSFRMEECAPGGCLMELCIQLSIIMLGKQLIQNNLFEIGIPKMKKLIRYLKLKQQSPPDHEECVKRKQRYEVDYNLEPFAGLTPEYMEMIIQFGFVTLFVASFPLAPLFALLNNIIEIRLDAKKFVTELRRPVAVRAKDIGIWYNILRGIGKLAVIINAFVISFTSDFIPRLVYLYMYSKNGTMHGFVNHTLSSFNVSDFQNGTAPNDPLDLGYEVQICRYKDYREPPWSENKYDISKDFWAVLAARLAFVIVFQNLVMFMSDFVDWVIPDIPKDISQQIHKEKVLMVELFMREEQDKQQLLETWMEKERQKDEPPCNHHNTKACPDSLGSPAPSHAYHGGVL
assay.remarks: QPatch whole-cell electrophysiology, HEK293 TMEM16A (acd)
Format: cell-based
measurement.conditions: 170 nM free calcium, Vhold 0 mV
assay.readout: effect on inward current at −100 mV, whole cell patch clamp

// below: answered compounds
| compound | endpoint.value |
| --- | --- |
| O=C(Nc1ccc([N+](=O)[O-])cc1)c1cc(Cl)c2ccccc2c1O [Cpd 3] | no significant effect |
| CCc1oc2ccccc2c1C(=O)c1cc(Br)c(O)c(Br)c1 [Benzbromarone] | inhibited |
| COc1cc(Nc2ccc([N+](=O)[O-])cc2C(=O)O)cc2ccccc12 [MONNA] | inhibited |
| COc1cc([N+](=O)[O-])ccc1NC(=O)c1cc(Cl)c2ccccc2c1O [Cpd 4] | no significant effect |
| O=C(Nc1ccc([N+](=O)[O-])cc1Cl)c1cc(Cl)ccc1O [Niclosamide] | paradoxical increase |

Exercise: What value of effect on inward current at −100 mV, whole cell patch clamp has been recorded for this entry: N#Cc1c(C(F)(F)F)cc(O)n2c1nc1ccccc12 [1PBC]
Solution: paradoxical increase

---

system.tested: human CFTR (Homo sapiens, UniProt P13569)
Construct: host or cells: CHO
Sequence (P13569 whole entry): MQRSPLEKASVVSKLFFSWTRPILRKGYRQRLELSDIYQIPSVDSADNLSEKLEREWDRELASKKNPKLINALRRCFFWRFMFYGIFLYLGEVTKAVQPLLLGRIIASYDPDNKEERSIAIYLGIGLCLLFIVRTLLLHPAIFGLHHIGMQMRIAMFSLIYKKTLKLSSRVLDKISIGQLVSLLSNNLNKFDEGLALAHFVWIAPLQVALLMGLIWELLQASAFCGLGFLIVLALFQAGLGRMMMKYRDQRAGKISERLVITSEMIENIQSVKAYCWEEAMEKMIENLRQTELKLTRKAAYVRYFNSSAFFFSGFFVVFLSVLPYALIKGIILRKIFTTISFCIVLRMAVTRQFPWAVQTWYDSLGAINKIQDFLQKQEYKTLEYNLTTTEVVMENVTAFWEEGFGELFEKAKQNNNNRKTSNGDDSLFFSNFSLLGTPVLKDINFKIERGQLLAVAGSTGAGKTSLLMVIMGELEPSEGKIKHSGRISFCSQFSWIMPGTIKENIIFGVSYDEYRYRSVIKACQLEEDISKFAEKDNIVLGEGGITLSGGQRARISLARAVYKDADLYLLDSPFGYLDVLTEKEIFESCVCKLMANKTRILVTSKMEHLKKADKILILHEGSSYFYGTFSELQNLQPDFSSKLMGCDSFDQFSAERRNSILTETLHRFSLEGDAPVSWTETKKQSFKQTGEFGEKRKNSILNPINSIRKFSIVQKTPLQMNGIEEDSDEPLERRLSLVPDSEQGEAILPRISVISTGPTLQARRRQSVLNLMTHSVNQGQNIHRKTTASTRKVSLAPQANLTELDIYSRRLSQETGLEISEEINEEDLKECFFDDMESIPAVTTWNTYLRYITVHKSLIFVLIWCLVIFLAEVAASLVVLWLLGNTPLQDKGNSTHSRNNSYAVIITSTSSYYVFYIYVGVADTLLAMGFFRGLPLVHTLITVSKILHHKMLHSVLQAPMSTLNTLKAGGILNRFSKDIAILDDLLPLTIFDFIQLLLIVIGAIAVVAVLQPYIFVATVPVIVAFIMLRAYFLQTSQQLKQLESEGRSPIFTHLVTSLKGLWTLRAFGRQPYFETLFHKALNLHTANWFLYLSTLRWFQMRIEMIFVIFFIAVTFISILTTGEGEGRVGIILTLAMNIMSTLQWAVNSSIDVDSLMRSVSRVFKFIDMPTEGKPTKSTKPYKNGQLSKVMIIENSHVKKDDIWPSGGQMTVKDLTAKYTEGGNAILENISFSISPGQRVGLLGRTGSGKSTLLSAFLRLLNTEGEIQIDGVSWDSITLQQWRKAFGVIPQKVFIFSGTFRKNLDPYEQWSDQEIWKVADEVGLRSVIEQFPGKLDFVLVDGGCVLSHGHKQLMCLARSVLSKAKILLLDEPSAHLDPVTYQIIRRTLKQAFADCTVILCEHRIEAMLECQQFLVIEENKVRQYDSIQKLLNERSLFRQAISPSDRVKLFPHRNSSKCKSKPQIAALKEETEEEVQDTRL
assay.remarks: IonWorks Barracuda electrophysiology, CFTR chloride current in CHO cells
Type: cell-based
assay.readout: IC50 (µM)
One number for each entry, in µM.

Exercise: What value of IC50 has been recorded for this entry: CCc1oc2ccccc2c1C(=O)c1cc(Br)c(O)c(Br)c1
Solution: 5.2

---

System: human bronchial rings
assay.remarks: Wire myograph bronchodilation of histamine pre-contracted human bronchial rings (Biopta)
measurement.conditions: Homo sapiens, 10 μM histamine; read-out: EC50 bronchodilating histamine precontracted human airways
pEC50: −log10 of the molar value.
Parameter threshold = 6. Response is y when pEC50 meets or exceeds it, else n.

Solved entries (count: 3):
| compound | system.tested | label |
| --- | --- | --- |
| CC(C)(C)NCC(O)c1ccc(O)c(CO)c1 (centres unmarked) | human bronchial rings | y |
| COc1cc([N+](=O)[O-])ccc1NC(=O)c1cc(Cl)c2ccccc2c1O | human bronchial rings | n |
| CC(C)NCC(O)c1ccc(O)c(O)c1 (centres unmarked) | human bronchial rings | y |

Next up:
Exercise: Entry CCc1oc2ccccc2c1C(=O)c1cc(Br)c(O)c(Br)c1 : is its pEC50 no less than 6?
Solution: n
